Molecular target: T1, Human PTH (1-34) (human, not fully specified)
T1 construct: Synthetic peptide bought from Bachem; also called hPTH (1-34); human 34mer
T1 peptide: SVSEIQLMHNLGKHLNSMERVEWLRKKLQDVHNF
Assay: BiaCore, 37° C., 34mer
Reported metric: Kd (pM)
Numbers only here, please. The scale is pM.

# binder anti-PTH mAb 183 (antibody, human IgG2, V domains shown) VH: EVQLVQSGAEVKKPGESLKISCKGSGYSFTSYWIGWVRQMPGKGLEWMGIISPGDSDTRYSPSFQGQVTISADKSISTAYLQWSSLKASDTAMYYCARQGDYVWGSYDSWGQGTLVTVSS VL: DIVMTQTPLSLSVTPGRPASISCKSSQSLLDSDGKTYLYWYLQKPGQPPQLLIYEVSNRFSGVPDRFSGSGSGTDFTLRISRVEAEDVGIYFCMPSIHLWTFGQGTKVEIK ; its Kd = 100

# binder anti-PTH mAb 168g2/183k (antibody, V domains shown) VH: EVQLVQSGAEVKKPGESLKISCKGSRYIFTNYWIGWVRQMPGKGLEWMGIIYPGDSDTRYSPSFQGQVTISADMSISTAYLQWSSLKASDTAMYYCARQGDYVWGSFDSWGQGTLVTVSS VL: DIVMTQTPLSLSVTPGRPASISCKSSQSLLDSDGKTYLYWYLQKPGQPPQLLIYEVSNRFSGVPDRFSGSGSGTDFTLRISRVEAEDVGIYFCMPSIHLWTFGQGTKVEIK ; its Kd = 640

# binder anti-PTH mAb 168 (antibody, human IgG2, V domains shown, also called XG2-168; AB-PTH-XG2-168) VH: EVQLVQSGAEVKKPGESLKISCKGSRYIFTNYWIGWVRQMPGKGLEWMGIIYPGDSDTRYSPSFQGQVTISADMSISTAYLQWSSLKASDTAMYYCARQGDYVWGSFDSWGQGTLVTVSS VL: DIVMTQTPLSLSVTPGQPASISCKSSQSLLDSDGKTYLYWYLQKPGQPPQLLIYEVSNRFSGVPDRFSGSGSGTDFTLKISRVEAEDVGVYYCMQSIQLWTFGQGTKVEIK ; its Kd = 2600
